# tested-on: OXA-97 (Acinetobacter baumannii)
# Sequence (A5Y470 entry or part of it): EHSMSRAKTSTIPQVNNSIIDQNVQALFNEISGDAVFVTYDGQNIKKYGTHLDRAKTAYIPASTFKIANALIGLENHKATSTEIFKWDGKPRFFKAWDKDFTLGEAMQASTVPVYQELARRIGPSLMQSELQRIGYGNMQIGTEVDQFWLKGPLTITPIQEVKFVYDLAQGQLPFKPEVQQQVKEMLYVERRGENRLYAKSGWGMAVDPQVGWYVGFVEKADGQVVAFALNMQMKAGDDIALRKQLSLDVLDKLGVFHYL
quantity-kind: IC50 (µM)
Unit µM implied. Number only.

Input line: Record OB(O)c1cccc(OCCc2ccccc2)c1 [Compound 1, [3-(2-Phenylethoxy)phenyl]boronic Acid] : what is its IC50 with OXA-97 (Acinetobacter baumannii)?
Output line: 189

----------
# tested-on: OXA-109 (Acinetobacter baumannii, UniProt A8JZR7)
# Sequence (A8JZR7 entry or part of it): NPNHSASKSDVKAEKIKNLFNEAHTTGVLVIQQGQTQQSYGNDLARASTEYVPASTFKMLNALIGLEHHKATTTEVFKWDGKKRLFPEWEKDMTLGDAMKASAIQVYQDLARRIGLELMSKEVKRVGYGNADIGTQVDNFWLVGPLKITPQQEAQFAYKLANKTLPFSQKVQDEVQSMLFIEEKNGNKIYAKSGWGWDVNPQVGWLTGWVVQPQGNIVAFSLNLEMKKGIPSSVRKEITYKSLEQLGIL
quantity-kind: IC50 (µM)
Unit µM implied. Number only.

Input line: Record OB(O)c1cccc(OCCc2ccccc2)c1 [Compound 1, [3-(2-Phenylethoxy)phenyl]boronic Acid] : what is its IC50 with OXA-109 (Acinetobacter baumannii, UniProt A8JZR7)?
Output line: 865

----------
# tested-on: OXA-51 (Acinetobacter baumannii, UniProt Q5QT35)
# Sequence (Q5QT35 entry or part of it): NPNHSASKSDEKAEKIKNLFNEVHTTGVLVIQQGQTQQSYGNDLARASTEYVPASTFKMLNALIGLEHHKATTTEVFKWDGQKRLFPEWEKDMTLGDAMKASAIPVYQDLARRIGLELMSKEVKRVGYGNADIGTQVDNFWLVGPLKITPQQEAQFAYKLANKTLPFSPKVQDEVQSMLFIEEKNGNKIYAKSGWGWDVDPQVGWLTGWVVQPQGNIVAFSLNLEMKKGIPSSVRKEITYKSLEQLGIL
quantity-kind: pIC50
Interpret pIC50 as the negative base-10 log of the concentration measured in mol/L.

Input line: Record OB(O)c1cccc(OCCc2ccccc2)c1 [Compound 1, [3-(2-Phenylethoxy)phenyl]boronic Acid] : what is its pIC50 with OXA-51 (Acinetobacter baumannii, UniProt Q5QT35)?
Output line: 3.23
